Kindly state viability at 48 h, 100 µM for each of the entries shown.
MEASUREMENT_NOTES: Cytotoxicity against Homo sapiens (human) FL cells assessed as cell viability at 10^-4 M after 48 hr by trypan blue exclusion assay relative to control
Type: cell-based
TEST_PARAMETERS: read-out: Activity
Number only, in %; omit the unit.

Query :: Input `CCOC(=O)N1c2ccccc2N(C(=O)OCC)C1CC(=O)c1ccccc1` , output reported viability at 48 h, 100 µM.
Result :: 83.1

Query :: Look up and state reported viability at 48 h, 100 µM for `CCOC(=O)N1c2cc(C)c(C)cc2N(C(=O)OCC)C1CC(=O)c1ccc(OC)cc1`
Result :: 49.4

Query :: Provide one value: measured viability at 48 h, 100 µM of `CCOC(=O)N1c2cc(C)c(C)cc2N(C(=O)OCC)C1CC(C)=O`
Result :: 31.2

Query :: Fill in viability at 48 h, 100 µM for record `CCOC(=O)N1c2ccccc2N(C(=O)OCC)C1CC(C)=O`
Result :: 0
